TARGET: UniProt:Q96EB6
Sequence (Q96EB6 whole entry): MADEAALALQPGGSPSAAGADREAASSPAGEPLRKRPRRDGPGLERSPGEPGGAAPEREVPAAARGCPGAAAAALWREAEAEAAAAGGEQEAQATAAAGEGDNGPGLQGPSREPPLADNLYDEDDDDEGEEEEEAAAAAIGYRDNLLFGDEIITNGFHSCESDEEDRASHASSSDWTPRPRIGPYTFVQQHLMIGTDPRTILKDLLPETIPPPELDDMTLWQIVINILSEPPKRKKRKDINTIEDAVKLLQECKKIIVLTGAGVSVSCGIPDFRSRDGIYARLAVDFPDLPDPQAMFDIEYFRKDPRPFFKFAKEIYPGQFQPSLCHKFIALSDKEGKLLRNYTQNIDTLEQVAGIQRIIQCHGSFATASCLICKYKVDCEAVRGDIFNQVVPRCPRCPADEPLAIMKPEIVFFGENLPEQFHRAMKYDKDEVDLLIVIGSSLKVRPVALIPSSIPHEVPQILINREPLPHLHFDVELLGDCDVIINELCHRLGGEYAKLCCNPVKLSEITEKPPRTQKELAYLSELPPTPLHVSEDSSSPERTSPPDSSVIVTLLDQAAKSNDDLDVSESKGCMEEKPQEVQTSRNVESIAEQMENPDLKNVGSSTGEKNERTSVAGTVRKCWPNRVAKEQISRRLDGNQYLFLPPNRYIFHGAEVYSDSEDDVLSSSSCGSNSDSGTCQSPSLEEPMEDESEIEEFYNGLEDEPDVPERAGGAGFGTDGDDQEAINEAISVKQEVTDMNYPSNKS
PROTOCOL_DETAILS: Trp mass spectrometry assay of SIRT1 activation
Format: biochemical
MEASUREMENT_CONDITIONS: Trp mass spectrometry assay; EC1.5 = concentration of test compound that results in 150% activation of SIRT1
MEASUREMENT_KIND: Tryp AVG EC1.5 (μM)

- COMPOUND: "O=C(Nc1ccccn1)N1c2nc(-c3ccnc(N4CC[C@@H](F)C4)c3)ccc2N2CC[C@H]1C2"
  RESULT: "B (B (EC1.5 1-25 μM))"
- COMPOUND: "Cc1nc(NC(=O)N2c3nc(-c4cccc(N5CCOCC5)c4)ccc3N3CCC[C@H]2C3)sc1C"
  RESULT: "B (B (EC1.5 1-25 μM))"
- COMPOUND: "Cc1ccc(-c2ccc3c(n2)N(C(=O)Nc2nc(C)c(C)s2)[C@H]2CCCN3C2)cn1"
  RESULT: "A (A (EC1.5<1 μM))"
- COMPOUND: "CC(C)(C)OC(=O)NCc1cn(-c2cccc(NC(=O)N3c4nc(-c5cccc(C(F)(F)F)c5)ccc4N4CC[C@H]3C4)c2)nn1"
  RESULT: "A (A (EC1.5<1 μM))"
- COMPOUND: "O=C(NCCc1cccnc1)N1c2nc(-c3cccc(C(F)(F)F)c3)ccc2N2CC[C@H]1C2"
  RESULT: "B (B (EC1.5 1-25 μM))"
- COMPOUND: "O=C(Nc1ccncn1)N1c2nc(N3CCCN(CC(F)(F)F)CC3)ccc2N2CCC[C@H]1C2"
  RESULT: "A (A (EC1.5<1 μM))"
- COMPOUND: "Cc1cncc(-c2ccc3c(n2)N(C(=O)Nc2cnccn2)[C@H]2CCCN3C2)c1"
  RESULT: "B (B (EC1.5 1-25 μM))"
- COMPOUND: "O=C(CCCC[C@@H]1SCC2NC(=O)NC21)NCCCCCC(=O)NCc1ccc(NC(=O)N2c3nc(-c4cccc(C(F)(F)F)c4)ccc3N3CCC[C@H]2C3)cc1 (stereo partly shown)"
  RESULT: "A (A (EC1.5<1 μM))"
- COMPOUND: "CC(C)(C)OC(=O)NCc1ccc(NC(=O)N2c3nc(-c4cccc(C(F)(F)F)c4)ccc3N3CCC[C@H]2C3)cc1"
  RESULT: "A (A (EC1.5<1 μM))"
- COMPOUND: "O=C(NCCCc1ccccc1)N1c2nc(-c3cccc(C(F)(F)F)c3)ccc2N2CC[C@H]1C2"
  RESULT: "B (B (EC1.5 1-25 μM))"
- COMPOUND: "O=C(NCCc1ccccn1)N1c2nc(-c3cccc(C(F)(F)F)c3)ccc2N2CC[C@H]1C2"
  RESULT: "B (B (EC1.5 1-25 μM))"
- COMPOUND: "O=C(Nc1cnccn1)N1c2nc(-c3cncc(F)c3)ccc2N2CCC[C@H]1C2"
  RESULT: "B (B (EC1.5 1-25 μM))"
- COMPOUND: "O=C(Nc1cccnc1)N1c2nc(-c3cccnc3)ccc2N2CCC[C@H]1C2"
  RESULT: "B (B (EC1.5 1-25 μM))"
- COMPOUND: "O=C(Nc1cncc(F)c1)N1c2nc(N3CC[C@H](F)C3)ccc2S(=O)(=O)N2CC[C@H]1C2"
  RESULT: "C (C (EC1.5>25 μM))"
- COMPOUND: "Cc1cc(-c2ccc3c(n2)N(C(=O)Nc2cnn(C)c2)[C@H]2CCN3C2)ccn1"
  RESULT: "B (B (EC1.5 1-25 μM))"
- COMPOUND: "O=C(Nc1cccc(-c2cnco2)c1)N1c2nc(-c3cccc(Cl)c3)ccc2N2CCC1CC2"
  RESULT: "A (A (EC1.5<1 μM))"
- COMPOUND: "O=C(Nc1ccc(F)cn1)N1c2nc(-c3ccnc(N4CC[C@@H](F)C4)c3)ccc2N2CC[C@H]1C2"
  RESULT: "A (A (EC1.5<1 μM))"
- COMPOUND: "O=C(Nc1cc(Br)cc(-c2cnco2)c1)N1c2nc(-c3cccc(C(F)(F)F)c3)ccc2N2CC[C@H]1C2"
  RESULT: "A (A (EC1.5<1 μM))"
- COMPOUND: "O=C(Nc1cccnc1)N1c2nc(-c3cnn(C4CCCC4)c3)ccc2N2CC[C@H]1C2"
  RESULT: "B (B (EC1.5 1-25 μM))"
- COMPOUND: "O=C(Nc1ccccn1)N1c2nc(-c3cccc(Cl)c3)ccc2N2CCC1CC2"
  RESULT: "B (B (EC1.5 1-25 μM))"
- COMPOUND: "Cc1c(-c2ccc3c(n2)C(C(=O)Nc2ccccn2)[C@H]2CCN3C2)cnn1C (stereo partly shown)"
  RESULT: "B (B (EC1.5 1-25 μM))"
- COMPOUND: "Cn1nccc1-c1cccc(NC(=O)N2c3nc(-c4cccc(C(F)(F)F)c4)ccc3N3CC[C@H]2C3)n1"
  RESULT: "A (A (EC1.5<1 μM))"
- COMPOUND: "O=C(Nc1cnccn1)N1c2nc(-c3ccc(Cl)c(Cl)c3)ccc2N2CC[C@H]1C2"
  RESULT: "A (A (EC1.5<1 μM))"
- COMPOUND: "Cc1cncc(-c2ccc3c(n2)N(C(=O)Nc2ccccn2)[C@H]2CCCN3C2)c1"
  RESULT: "A (A (EC1.5<1 μM))"
- COMPOUND: "CC(C)N1CCCN(c2ccc3c(n2)N(C(=O)Nc2ccncn2)[C@H]2CCCN3C2)CC1"
  RESULT: "C (C (EC1.5>25 μM))"
- COMPOUND: "Cc1ccncc1-c1ccc2c(n1)N(C(=O)Nc1cccnn1)[C@H]1CCCN2C1"
  RESULT: "C (C (EC1.5>25 μM))"
- COMPOUND: "O=C(Nc1cccnn1)N1c2nc(-c3cccnc3)ccc2N2CCC[C@H]1C2"
  RESULT: "B (B (EC1.5 1-25 μM))"
- COMPOUND: "Cc1nc(-c2cccc(NC(=O)N3c4nc(-c5cccc(C(F)(F)F)c5)ccc4N4CC[C@H]3C4)c2)cs1"
  RESULT: "A (A (EC1.5<1 μM))"
- COMPOUND: "CC(C)n1cc(-c2ccc3c(n2)N(C(=O)Nc2cccnc2)[C@H]2CCN3C2)cn1"
  RESULT: "B (B (EC1.5 1-25 μM))"
- COMPOUND: "COc1nccnc1NC(=O)N1c2nc(-c3ccnc(C)c3)ccc2N2CC[C@H]1C2"
  RESULT: "B (B (EC1.5 1-25 μM))"
- COMPOUND: "O=C(Nc1cncc(F)c1)N1c2nc(-c3cncc(Cl)c3)ccc2N2CCC1CC2"
  RESULT: "B (B (EC1.5 1-25 μM))"
